These measurements were taken from patent US9521846B2.

# Test system: Pseudomonas aeruginosa IMP 1 Livermore 3140
# Type: cell-based
# TEST_PARAMETERS: IMP 1 Livermore 3140
Non-standard residues stand in square brackets, D forms with d. Residues, ends and D or L forms follow the SMILES beside them. Cha = N[C@@H](CC1CCCCC1)C(=O)O; Dab = NCC[C@H](N)C(=O)O
MEASURED_PARAMETER: MIC P. aeruginosa IMP1 Livermore 3140

{"columns": ["COMPOUND", "MIC P. aeruginosa IMP1 Livermore 3140"],
 "data": [
  ["CC[C@H](C)[C@@H]1NC(=O)[C@H](Cc2c[nH]c3ccccc23)NC(=O)[C@H]([C@@H](C)O)NC(=O)[C@@H]2CCCN2C(=O)[C@H]2CCCN2C(=O)[C@H](CCN)NC(=O)[C@H](CC2CCCCC2)NC(=O)[C@H](CCN)NC(=O)[C@H](CCN)NC(=O)[C@H](Cc2c[nH]c3ccccc23)NC(=O)[C@H](CCN)NC(=O)[C@H](CCN)NC(=O)[C@H](CCCCN)NC(=O)[C@H](CCN)NC1=O [Example 12] (cyclo(TWI[Dab]K[Dab][Dab]W[Dab][Dab][Cha][Dab][dP]P))", ">2 µg/mL"]
]}

Alright, here's another compound for you.
Problem: // query MIC P. aeruginosa IMP1 Livermore 3140 value for entry CC[C@H](C)[C@@H]1NC(=O)[C@H](Cc2c[nH]c3ccccc23)NC(=O)[C@H]([C@@H](C)O)NC(=O)[C@@H]2CCCN2C(=O)[C@H]2CCCN2C(=O)[C@H](CCN)NC(=O)[C@H](C)NC(=O)[C@H](CCN)NC(=O)[C@H](CCN)NC(=O)[C@H](Cc2ccc(O)cc2)NC(=O)[C@H](CCN)NC(=O)[C@H](CCN)NC(=O)[C@H](CCCCN)NC(=O)[C@H](CCN)NC1=O [Example 20] (cyclo(TWI[Dab]K[Dab][Dab]Y[Dab][Dab]A[Dab][dP]P))
Result: 1.25 µg/mL

###

# Tested on: human red blood cells (hRBC)
# PROTOCOL_TEXT: Hemolysis
# Format: cell-based
# TEST_PARAMETERS: 100
Non-standard residues stand in square brackets, D forms with d. Residues, ends and D or L forms follow the SMILES beside them. Dab = NCC[C@H](N)C(=O)O
MEASURED_PARAMETER: Hemolysis at 100 μg/ml
Please state the value followed by its unit.

Problem: // lookup Hemolysis at 100 μg/ml for CC[C@H](C)[C@@H]1NC(=O)[C@H](Cc2ccc(O)cc2)NC(=O)[C@H]([C@@H](C)O)NC(=O)[C@@H]2CCCN2C(=O)[C@H]2CCCN2C(=O)[C@H](CCN)NC(=O)[C@H](C)NC(=O)[C@H](CCN)NC(=O)[C@H](CCN)NC(=O)[C@H](Cc2c[nH]c3ccccc23)NC(=O)[C@H](CCN)NC(=O)[C@H](CCN)NC(=O)[C@H](CCCCN)NC(=O)[C@H](CCN)NC1=O [Example 19] (cyclo(TYI[Dab]K[Dab][Dab]W[Dab][Dab]A[Dab][dP]P))
Result: 0.2%

###

List of MIC P. aeruginosa P1021903 values.
# Tested on: Pseudomonas aeruginosa P1021903
# Assay type: cell-based
# TEST_PARAMETERS: P1021903
Non-standard residues stand in square brackets, D forms with d. Residues, ends and D or L forms follow the SMILES beside them. Dab = NCC[C@H](N)C(=O)O
Dear colleague, please return just the value in µg/mL, with no unit written.

{"columns": ["MOLECULE", "MIC P. aeruginosa P1021903, µg/mL"],
 "data": [
  ["CC[C@H](C)[C@@H]1NC(=O)[C@H](Cc2c[nH]c3ccccc23)NC(=O)[C@H]([C@@H](C)O)NC(=O)[C@@H]2CCCN2C(=O)[C@H]2CCCN2C(=O)[C@H](CCCCN)NC(=O)[C@H](C)NC(=O)[C@H](CCN)NC(=O)[C@H](CCN)NC(=O)[C@H](Cc2c[nH]c3ccccc23)NC(=O)[C@H](CCN)NC(=O)[C@H](CCN)NC(=O)[C@H](CCCCN)NC(=O)[C@H](CCN)NC1=O [Example 28] (cyclo(TWI[Dab]K[Dab][Dab]W[Dab][Dab]AK[dP]P))", 0.07]
]}

From here, focus on the item given below.
Problem: So what does the record say about MIC P. aeruginosa P1021903 for CC[C@H](C)[C@@H]1NC(=O)[C@H](Cc2c[nH]c3ccccc23)NC(=O)[C@H]([C@@H](C)O)NC(=O)[C@@H]2CCCN2C(=O)[C@H]2CCCN2C(=O)[C@H](CCN)NC(=O)[C@H](CC(C)C)NC(=O)[C@H](CCN)NC(=O)[C@H](CCN)NC(=O)[C@H](Cc2c[nH]c3ccccc23)NC(=O)[C@H](CCN)NC(=O)[C@H](CCN)NC(=O)[C@H](CCCCN)NC(=O)[C@H](CCN)NC1=O [Example 7] (cyclo(TWI[Dab]K[Dab][Dab]W[Dab][Dab]L[Dab][dP]P)) ?
Result: 1.50

###

# PROTOCOL_TEXT: in vivo
# Set-up: species or system CD-1 mice
# TEST_PARAMETERS: mouse, sc, 5 mg/kg
# Method: Pharmacokinetic Study after Single Intravenous, Subcutaneous and Intraperitoneal Administration in Mice Pharmacokinetic study after single intravenous (i.v.) and subcutaneous (s.c.) administration was performed for the compound of Example 1 (“Ex. 1”). CD-1 mice (20-25 g) were used in the study. […] The area under the curve AUC was calculated by the linear trapezoidal rule. Elimination half-life was calculated by the linear regression on at least three data points during the elimination phase. […]
Non-standard residues stand in square brackets, D forms with d. Residues, ends and D or L forms follow the SMILES beside them. Dab = NCC[C@H](N)C(=O)O
MEASURED_PARAMETER: Tmax (min)
State just the number; it will be interpreted in min.

Problem: What Tmax value was documented for this compound, CC[C@H](C)[C@@H]1NC(=O)[C@H](Cc2c[nH]c3ccccc23)NC(=O)[C@H]([C@@H](C)O)NC(=O)[C@@H]2CCCN2C(=O)[C@H]2CCCN2C(=O)[C@H](CCN)NC(=O)[C@H](C)NC(=O)[C@H](CCN)NC(=O)[C@H](CCN)NC(=O)[C@H](Cc2c[nH]c3ccccc23)NC(=O)[C@H](CCN)NC(=O)[C@H](CCN)NC(=O)[C@H](CCCCN)NC(=O)[C@H](CCN)NC1=O [Example 1] (cyclo(TWI[Dab]K[Dab][Dab]W[Dab][Dab]A[Dab][dP]P)) ?
Result: 34.8

###

# PROTOCOL_TEXT: in vivo
# Design: species or system CD-1 mice
# TEST_PARAMETERS: CD-1, mouse, iv, 1 mg/kg
Non-standard residues stand in square brackets, D forms with d. Residues, ends and D or L forms follow the SMILES beside them. Dab = NCC[C@H](N)C(=O)O
MEASURED_PARAMETER: level at 1 h (ng/mL)
Return type: number; implicit unit ng/mL.

Problem: Look up level at 1 h for this compound: CC[C@H](C)[C@@H]1NC(=O)[C@H](Cc2c[nH]c3ccccc23)NC(=O)[C@H]([C@@H](C)O)NC(=O)[C@@H]2CCCN2C(=O)[C@H]2CCCN2C(=O)[C@H](CCN)NC(=O)[C@H](C)NC(=O)[C@H](CCN)NC(=O)[C@H](CCN)NC(=O)[C@H](Cc2c[nH]c3ccccc23)NC(=O)[C@H](CCN)NC(=O)[C@H](CCN)NC(=O)[C@H](CCCCN)NC(=O)[C@H](CCN)NC1=O [Example 1] (cyclo(TWI[Dab]K[Dab][Dab]W[Dab][Dab]A[Dab][dP]P))
Result: 177

###

# Tested on: Pseudomonas aeruginosa IMP 1 Livermore 3140
# Format: cell-based
# TEST_PARAMETERS: IMP 1 Livermore 3140
Non-standard residues stand in square brackets, D forms with d. Residues, ends and D or L forms follow the SMILES beside them. Cha = N[C@@H](CC1CCCCC1)C(=O)O; dDab = NCC[C@@H](N)C(=O)O; Orn = NCCC[C@H](N)C(=O)O; Dab = NCC[C@H](N)C(=O)O
MEASURED_PARAMETER: MIC P. aeruginosa IMP1 Livermore 3140 (µg/mL)
The figure you give is taken to be in µg/mL; do not add the unit.

Illustrative cases are given below, each with its answer.
{"columns": ["COMPOUND", "MIC P. aeruginosa IMP1 Livermore 3140 (µg/mL)"],
 "data": [
  ["CC[C@H](C)[C@@H]1NC(=O)[C@H](Cc2c[nH]c3ccccc23)NC(=O)[C@H]([C@@H](C)O)NC(=O)[C@@H]2CCCN2C(=O)[C@H]2CCCN2C(=O)[C@H](CCN)NC(=O)[C@H](C)NC(=O)[C@H](CCN)NC(=O)[C@H](CCN)NC(=O)[C@H](Cc2c[nH]c3ccccc23)NC(=O)[C@H](CCN)NC(=O)[C@@H](CCN)NC(=O)[C@H](CCCN)NC(=O)[C@H](CCN)NC1=O [Example 48] (cyclo(TWI[Dab][Orn][dDab][Dab]W[Dab][Dab]A[Dab][dP]P))", 0.19],
  ["CC[C@H](C)[C@@H]1NC(=O)[C@H](Cc2c[nH]c3ccccc23)NC(=O)[C@H](CCC(=O)O)NC(=O)[C@@H]2CCCN2C(=O)[C@H]2CCCN2C(=O)[C@H](CCN)NC(=O)[C@H](C)NC(=O)[C@H](CCN)NC(=O)[C@H](CCN)NC(=O)[C@H](Cc2c[nH]c3ccccc23)NC(=O)[C@H](CCN)NC(=O)[C@@H](CCN)NC(=O)[C@H](CCCN)NC(=O)[C@H](CCN)NC1=O [Example 47] (cyclo(EWI[Dab][Orn][dDab][Dab]W[Dab][Dab]A[Dab][dP]P))", 0.75],
  ["CC[C@H](C)[C@@H]1NC(=O)[C@H](Cc2c[nH]c3ccccc23)NC(=O)[C@H]([C@@H](C)O)NC(=O)[C@@H]2CCCN2C(=O)[C@H]2CCCN2C(=O)[C@H](CCN)NC(=O)[C@H](C)NC(=O)[C@H](CCN)NC(=O)[C@H](CCN)NC(=O)[C@H](Cc2c[nH]c3ccccc23)NC(=O)[C@H](CCCCN)NC(=O)[C@H](CCN)NC(=O)[C@H](CCCCN)NC(=O)[C@H](CCN)NC1=O [Example 26] (cyclo(TWI[Dab]K[Dab]KW[Dab][Dab]A[Dab][dP]P))", 0.40],
  ["CC[C@H](C)[C@@H]1NC(=O)[C@H](Cc2c[nH]c3ccccc23)NC(=O)[C@H]([C@@H](C)O)NC(=O)[C@@H]2CCCN2C(=O)[C@H]2CCCN2C(=O)[C@H](CCN)NC(=O)CNC(=O)[C@H](CCN)NC(=O)[C@H](CCN)NC(=O)[C@H](Cc2c[nH]c3ccccc23)NC(=O)[C@H](CCN)NC(=O)[C@H](CCN)NC(=O)[C@H](CCCCN)NC(=O)[C@H](CCN)NC1=O [Example 2] (cyclo(TWI[Dab]K[Dab][Dab]W[Dab][Dab]G[Dab][dP]P))", 0.24]
]}

Problem: Returns the measured MIC P. aeruginosa IMP1 Livermore 3140 for the input compound. Input: C[C@@H]1NC(=O)[C@H](CCN)NC(=O)[C@H](CCN)NC(=O)[C@H](Cc2c[nH]c3ccccc23)NC(=O)[C@H](CCN)NC(=O)[C@H](CCN)NC(=O)[C@H](CCCCN)NC(=O)[C@H](CCN)NC(=O)[C@H](CC2CCCCC2)NC(=O)[C@H](Cc2c[nH]c3ccccc23)NC(=O)[C@H]([C@@H](C)O)NC(=O)[C@@H]2CCCN2C(=O)[C@H]2CCCN2C(=O)[C@H](CCN)NC1=O [Example 34] (cyclo(TW[Cha][Dab]K[Dab][Dab]W[Dab][Dab]A[Dab][dP]P))
Result: 0.60

Problem: Report MIC P. aeruginosa IMP1 Livermore 3140 for CC[C@H](C)[C@@H]1NC(=O)[C@H](Cc2c[nH]c3ccccc23)NC(=O)[C@H]([C@@H](C)O)NC(=O)[C@@H]2CCCN2C(=O)[C@H]2CCCN2C(=O)[C@H](CCN)NC(=O)[C@H]([C@@H](C)O)NC(=O)[C@H](CCN)NC(=O)[C@H](CCN)NC(=O)[C@H](Cc2c[nH]c3ccccc23)NC(=O)[C@H](CCN)NC(=O)[C@H](CCN)NC(=O)[C@H](CCCCN)NC(=O)[C@H](CCN)NC1=O [Example 16] (cyclo(TWI[Dab]K[Dab][Dab]W[Dab][Dab]T[Dab][dP]P)) please.
Result: 0.24

Problem: Could you tell me which MIC P. aeruginosa IMP1 Livermore 3140 is on file for CC[C@H](C)[C@@H]1NC(=O)[C@H](Cc2c[nH]c3ccccc23)NC(=O)[C@H]([C@@H](C)O)NC(=O)[C@@H]2CCCN2C(=O)[C@H]2CCCN2C(=O)[C@H](CCN)NC(=O)[C@H](C)NC(=O)[C@H](CCN)NC(=O)[C@H](CCN)NC(=O)[C@H](Cc2c[nH]c3ccccc23)NC(=O)[C@H](Cc2c[nH]cn2)NC(=O)[C@H](CCN)NC(=O)[C@H](CCCCN)NC(=O)[C@H](CCN)NC1=O [Example 21] (cyclo(TWI[Dab]K[Dab]HW[Dab][Dab]A[Dab][dP]P)) ?
Result: 1.00
